- target.or.system: HIV-1 RT wild-type enzyme (Human immunodeficiency virus type 1 group M subtype B (isolate HXB2) (HIV-1), UniProt P04585)
- measurement.protocol: Determination of HIV-1 reverse transcriptase inhibitory activity (RT polymerase assay)
- condition.set: HIV-1 RT wild-type enzyme 83 pM, RNA-dependent DNA polymerase reaction
parameter: IC50 (nM)

| smiles.structure | unit.info | number |
| --- | --- | --- |
| CC(C)c1ccc(-c2cc(Cn3cnc(C(F)(F)F)c(Oc4cc(Cl)cc(C#N)c4)c3=O)n[nH]c2=O)cc1 | nM | 15 |
